Molecular target: Ba/F3-EGFR-WT cells (Homo sapiens, UniProt P00533)
Sequence (P00533 whole entry, change not shown): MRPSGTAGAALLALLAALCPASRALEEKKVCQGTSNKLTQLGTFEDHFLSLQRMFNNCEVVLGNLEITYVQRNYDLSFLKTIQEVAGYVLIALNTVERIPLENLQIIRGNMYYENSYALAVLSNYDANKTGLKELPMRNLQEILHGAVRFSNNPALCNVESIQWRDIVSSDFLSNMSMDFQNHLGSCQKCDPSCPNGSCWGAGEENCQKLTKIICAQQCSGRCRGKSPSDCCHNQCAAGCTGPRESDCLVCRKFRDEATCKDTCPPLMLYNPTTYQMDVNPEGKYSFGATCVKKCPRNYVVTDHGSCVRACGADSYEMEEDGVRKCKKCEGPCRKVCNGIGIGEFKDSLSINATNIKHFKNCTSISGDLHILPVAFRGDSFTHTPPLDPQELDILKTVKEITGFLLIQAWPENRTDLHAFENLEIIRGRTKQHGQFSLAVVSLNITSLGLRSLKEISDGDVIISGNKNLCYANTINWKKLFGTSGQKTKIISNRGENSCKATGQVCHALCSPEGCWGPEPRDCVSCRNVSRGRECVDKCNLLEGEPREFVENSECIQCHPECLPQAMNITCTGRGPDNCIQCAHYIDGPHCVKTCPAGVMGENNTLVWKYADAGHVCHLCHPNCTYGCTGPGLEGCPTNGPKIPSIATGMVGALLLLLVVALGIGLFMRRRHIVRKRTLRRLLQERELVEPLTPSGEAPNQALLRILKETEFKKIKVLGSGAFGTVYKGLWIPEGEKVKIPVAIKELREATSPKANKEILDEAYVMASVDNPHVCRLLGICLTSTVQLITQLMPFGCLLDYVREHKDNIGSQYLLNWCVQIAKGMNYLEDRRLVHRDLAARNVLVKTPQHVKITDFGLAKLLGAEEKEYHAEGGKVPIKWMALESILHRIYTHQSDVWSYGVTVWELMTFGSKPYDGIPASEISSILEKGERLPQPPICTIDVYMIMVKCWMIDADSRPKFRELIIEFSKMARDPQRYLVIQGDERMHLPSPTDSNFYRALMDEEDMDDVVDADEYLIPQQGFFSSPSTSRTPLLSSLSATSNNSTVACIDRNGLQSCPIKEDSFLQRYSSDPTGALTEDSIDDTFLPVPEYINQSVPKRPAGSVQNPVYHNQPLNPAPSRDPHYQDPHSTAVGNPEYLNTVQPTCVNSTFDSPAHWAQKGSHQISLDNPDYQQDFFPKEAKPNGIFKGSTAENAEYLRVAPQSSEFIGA
Experiment: Ba/F3 cell survival assay (Cell Titer-Glo), WT EGFR
Format: cell-based
Settings: without IL-3, with 10 ng/mL EGF, 48 h; read-out: BA/F3 (wild type) IC50
For each record, write down the corresponding GI50.
Answers are plain numbers, in nM.

Please review the following examples before continuing.
{"compound": "COc1c(F)cccc1Nc1c(-c2ccncc2OCC2CN(C)CCO2)[nH]c2c1C(=O)NCC2 (stereo not drawn) [Example 12]", "unit label": "nM", "GI50": 574}
{"compound": "COc1c(F)cccc1Nc1c(-c2ccncc2OCC2CN(C)CCO2)[nH]c2c1C(=O)NCC2 (single isomer, unassigned) [Example 14]", "unit label": "nM", "GI50": 387}
{"compound": "CCc1c(Cl)cccc1Nc1c(-c2ccncc2OCC2CN(C)CCO2)[nH]c2c1C(=O)NCC2 (stereo not drawn)", "unit label": "nM", "GI50": 621}

Please give GI50 for each item listed below.
1. COc1c(F)cccc1Nc1c(-c2ccncc2OC[C@H]2COCCN2C)[nH]c2c1C(=O)NCC2
2. COc1c(Cl)cccc1Nc1c(-c2ccncc2OC(C)C2CN(C)CCO2)[nH]c2c1C(=O)NCC2 (single isomer, unassigned) [Example 75]
3. COc1c(F)cccc1Nc1c(-c2ccncc2OC[C@@H]2CN(CC(F)F)CCO2)[nH]c2c1C(=O)NCC2

1: 348; 2: 3900; 3: 544

====

Biological target: Ba/F3-EGFR-D770_N771insNPG cells (Homo sapiens, UniProt P00533, INS772GNP, cells depend on it)
Sequence (P00533 with tags, fused parts or gaps INS772GNP): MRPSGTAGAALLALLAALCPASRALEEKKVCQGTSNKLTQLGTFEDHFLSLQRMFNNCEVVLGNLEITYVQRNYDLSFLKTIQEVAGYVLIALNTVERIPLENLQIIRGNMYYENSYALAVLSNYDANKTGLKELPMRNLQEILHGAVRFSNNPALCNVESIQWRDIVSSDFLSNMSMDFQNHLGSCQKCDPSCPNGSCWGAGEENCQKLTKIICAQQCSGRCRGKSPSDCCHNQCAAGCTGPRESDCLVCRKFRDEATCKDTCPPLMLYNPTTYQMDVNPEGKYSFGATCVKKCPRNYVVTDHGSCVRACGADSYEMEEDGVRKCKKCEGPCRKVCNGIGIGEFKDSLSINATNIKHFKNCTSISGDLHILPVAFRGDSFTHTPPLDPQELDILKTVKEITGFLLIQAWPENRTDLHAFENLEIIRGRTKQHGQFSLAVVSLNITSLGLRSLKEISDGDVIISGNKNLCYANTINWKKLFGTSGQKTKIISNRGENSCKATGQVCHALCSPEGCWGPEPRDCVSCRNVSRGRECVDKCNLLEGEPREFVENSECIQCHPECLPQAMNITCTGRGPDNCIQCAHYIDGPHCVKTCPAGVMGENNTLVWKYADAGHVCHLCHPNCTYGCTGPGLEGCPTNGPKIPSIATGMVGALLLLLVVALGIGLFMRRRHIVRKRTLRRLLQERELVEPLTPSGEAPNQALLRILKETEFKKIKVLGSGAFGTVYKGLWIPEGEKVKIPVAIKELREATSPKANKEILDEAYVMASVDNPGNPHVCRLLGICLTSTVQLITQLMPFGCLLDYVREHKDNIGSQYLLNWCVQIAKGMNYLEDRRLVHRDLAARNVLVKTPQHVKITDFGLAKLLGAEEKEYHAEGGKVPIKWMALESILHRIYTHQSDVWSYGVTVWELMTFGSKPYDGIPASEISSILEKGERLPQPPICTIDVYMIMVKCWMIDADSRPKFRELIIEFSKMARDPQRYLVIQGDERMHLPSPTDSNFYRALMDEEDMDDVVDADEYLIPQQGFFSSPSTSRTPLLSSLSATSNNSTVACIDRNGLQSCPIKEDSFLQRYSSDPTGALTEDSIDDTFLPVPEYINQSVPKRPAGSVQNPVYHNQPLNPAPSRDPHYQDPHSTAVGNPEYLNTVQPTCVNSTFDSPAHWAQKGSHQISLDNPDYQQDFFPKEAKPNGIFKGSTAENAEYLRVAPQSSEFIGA
Test: Ba/F3 cell survival assay, EGFR D770_N771insNPG
Format: cell-based
Conditions: without IL-3, without EGF, 48 h; read-out: BA/F3 (insNPG) IC50
Answer each item with its documented GI50.
One number for each entry, in nM.

{"compound": "Cc1c(F)cccc1Nc1c(-c2ccncc2OCC2COCCO2)[nH]c2c1C(=O)NCC2 (single isomer, unassigned)", "unit label": "nM", "GI50": 42.4}
{"compound": "COc1c(Cl)cccc1Nc1c(-c2ccncc2OC[C@@H]2COCCO2)[nH]c2c1C(=O)NCC2 (single isomer, unassigned)", "unit label": "nM", "GI50": 4.44}
{"compound": "COc1c(F)cccc1Nc1c(-c2ccncc2OC[C@@H]2COCCN2C)[nH]c2c1C(=O)NCC2", "unit label": "nM", "GI50": 14.7}

Next compound, GI50 to be filled in.
Please report GI50 for the following compound: CCc1c(Cl)cccc1Nc1c(-c2ccncc2OC[C@@H]2CN(C)CCO2)[nH]c2c1C(=O)NCC2
6.96

====

Hi there, I'd appreciate the recorded GI50 for every entry that follows.
Molecular target: Ba/F3-EGFR-D770_N771insNPG cells (Homo sapiens, UniProt P00533, INS772GNP, cells depend on it)
Assay: Ba/F3 cell survival assay, EGFR D770_N771insNPG
Format: cell-based
Details: without IL-3, without EGF, 48 h; read-out: BA/F3 (insNPG) IC50
Give bare numbers, in nM.

These recorded examples may help you get a feel for the data.
{"compound": "COc1c(Cl)cccc1Nc1c(-c2ccncc2OC[C@@H]2COCCN2C)[nH]c2c1C(=O)NCC2", "GI50 / nM": 5.65}
{"compound": "O=C1NCCc2[nH]c(-c3ccncc3OCC3COCCO3)c(Nc3cccc(Cl)c3Cl)c21 (single isomer, unassigned)", "GI50 / nM": 11.6}
{"compound": "COc1c(F)cccc1Nc1c(-c2ccncc2OCC2COCCO2)[nH]c2c1C(=O)NCC2 (single isomer, unassigned)", "GI50 / nM": 26.3}
{"compound": "COc1c(Cl)cccc1Nc1c(-c2ccncc2OCC2COC(C)(C)CO2)[nH]c2c1C(=O)NCC2 (single isomer, unassigned)", "GI50 / nM": 9.38}
{"compound": "Cc1c(Cl)cccc1Nc1c(-c2ccncc2OC[C@@H]2CN(C)CCO2)[nH]c2c1C(=O)NCC2", "GI50 / nM": 12}

Please report GI50 for every entry that follows.
1. Cc1c(Cl)cccc1Nc1c(-c2ccncc2OC[C@H]2COCCO2)[nH]c2c1C(=O)NCC2 (single isomer, unassigned)
2. Cc1c(Cl)cccc1Nc1c(-c2ccncc2OCC2COC(C)(C)CO2)[nH]c2c1C(=O)NCC2 (single isomer, unassigned)
3. COc1c(F)cccc1Nc1c(-c2ccncc2OCC2CN(C)CCO2)[nH]c2c1C(=O)NCC2 (single isomer, unassigned)

1: 11.3; 2: 14.3; 3: 12.5

====

Target: Ba/F3-EGFR-WT cells (Homo sapiens)
Test: Ba/F3 cell survival assay (Cell Titer-Glo), WT EGFR
Assay type: cell-based
Details: without IL-3, with 10 ng/mL EGF, 48 h; read-out: BA/F3 (wild type) IC50
For each of the compounds below, state its GI50.
Reply with a number, then the unit it belongs to.

Some compounds with known GI50 results, for comparison:
{"compound": "CCc1c(Cl)cccc1Nc1c(-c2ccncc2OC[C@H]2CN(C)CCO2)[nH]c2c1C(=O)NCC2 [Example 55]", "target or system": "Ba/F3-EGFR-WT cells (Homo sapiens)", "GI50": "1.31 µM"}
{"compound": "COc1c(Cl)cccc1Nc1c(-c2ccncc2OC[C@H]2COCCN2C)[nH]c2c1C(=O)NCC2 [Example 11]", "target or system": "Ba/F3-EGFR-WT cells (Homo sapiens)", "GI50": "0.701 µM"}

Consider the following items and state reported GI50 for each.
1. COc1c(Cl)cccc1Nc1c(-c2ccncc2OC(C)C2CN(C)CCO2)[nH]c2c1C(=O)NCC2 (single isomer, unassigned) [Example 72]
2. CCc1c(Cl)cccc1Nc1c(-c2ccncc2OCC2COCCO2)[nH]c2c1C(=O)NCC2 (centres unmarked) [Example 52]
3. O=C1NCCc2[nH]c(-c3ccncc3OCC3COCCO3)c(Nc3cccc(Cl)c3Cl)c21 (single isomer, unassigned) [Example 9]
4. COc1c(Cl)cccc1Nc1c(-c2ccncc2O[C@H](C)C2COCCO2)[nH]c2c1C(=O)NCC2 (single isomer, unassigned) [Example 60]
5. Cc1c(Cl)cccc1Nc1c(-c2ccncc2OCC2COC(C)(C)CO2)[nH]c2c1C(=O)NCC2 (single isomer, unassigned) [Example 45]

1. 0.957 µM
2. 0.547 µM
3. 0.303 µM
4. 0.946 µM
5. 1.64 µM

# per-item lookup of GI50; items listed below
1. CCc1c(F)cccc1Nc1c(-c2ccncc2OCC2COC(C)(C)CO2)[nH]c2c1C(=O)NCC2 (single isomer, unassigned) [Example 70]
2. COc1c(Cl)cc(F)cc1Nc1c(-c2ccncc2OCC2CN(C)CCO2)[nH]c2c1C(=O)NCC2 (centres unmarked) [Example 18]

1: 0.714 µM; 2: 0.579 µM

====

Molecular target: Ba/F3-EGFR-H773_V774insNPH cells (Homo sapiens, UniProt P00533, DUP771-773, cells depend on it)
Sequence (P00533 with tags, fused parts or gaps DUP771-773): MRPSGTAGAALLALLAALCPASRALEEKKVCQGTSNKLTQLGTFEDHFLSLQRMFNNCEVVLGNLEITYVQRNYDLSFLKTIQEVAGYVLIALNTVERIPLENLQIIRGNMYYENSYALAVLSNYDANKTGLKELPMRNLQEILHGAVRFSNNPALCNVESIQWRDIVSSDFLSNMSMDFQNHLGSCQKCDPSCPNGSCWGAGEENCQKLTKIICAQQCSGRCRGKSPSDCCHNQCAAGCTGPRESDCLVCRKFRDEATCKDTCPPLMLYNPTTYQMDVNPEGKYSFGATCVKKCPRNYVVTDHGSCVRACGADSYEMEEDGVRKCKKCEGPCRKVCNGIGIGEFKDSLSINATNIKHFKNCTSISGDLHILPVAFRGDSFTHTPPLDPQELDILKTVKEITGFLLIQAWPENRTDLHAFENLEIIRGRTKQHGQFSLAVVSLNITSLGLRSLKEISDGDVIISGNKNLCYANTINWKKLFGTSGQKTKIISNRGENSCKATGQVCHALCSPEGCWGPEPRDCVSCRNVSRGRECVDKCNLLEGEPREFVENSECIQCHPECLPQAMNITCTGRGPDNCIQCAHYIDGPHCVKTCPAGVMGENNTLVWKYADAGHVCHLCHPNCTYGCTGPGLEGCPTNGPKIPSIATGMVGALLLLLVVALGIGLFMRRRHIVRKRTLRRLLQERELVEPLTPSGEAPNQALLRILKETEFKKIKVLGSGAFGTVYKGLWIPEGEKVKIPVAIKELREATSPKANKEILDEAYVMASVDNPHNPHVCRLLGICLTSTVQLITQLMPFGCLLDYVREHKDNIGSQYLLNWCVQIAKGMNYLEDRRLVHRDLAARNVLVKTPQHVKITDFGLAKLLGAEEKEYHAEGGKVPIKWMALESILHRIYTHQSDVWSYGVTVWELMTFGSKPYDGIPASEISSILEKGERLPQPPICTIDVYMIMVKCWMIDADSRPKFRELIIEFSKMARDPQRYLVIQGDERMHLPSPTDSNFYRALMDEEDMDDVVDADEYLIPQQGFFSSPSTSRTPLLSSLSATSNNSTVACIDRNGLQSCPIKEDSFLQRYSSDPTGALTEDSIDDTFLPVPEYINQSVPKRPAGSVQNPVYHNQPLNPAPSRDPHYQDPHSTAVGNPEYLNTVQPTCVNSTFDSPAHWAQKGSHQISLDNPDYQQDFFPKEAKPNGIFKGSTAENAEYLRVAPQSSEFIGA
Experiment: Ba/F3 cell survival assay, EGFR H773_V774insNPH
Type: cell-based
Settings: read-out: BA/F3 (EGFR 773_774insNPH) IC50 [mol/l]; without IL-3, without EGF, 48 h
quantity kind: GI50 (nM)
One number for each entry, in nM.

Answered examples (5):
{"molecule": "COc1c(Cl)cccc1Nc1c(-c2ccncc2OC[C@@H]2COCCN2C)[nH]c2c1C(=O)NCC2", "readout number": 27.6}
{"molecule": "Cc1c(Cl)cccc1Nc1c(-c2ccncc2OC[C@H]2COCCO2)[nH]c2c1C(=O)NCC2 (single isomer, unassigned)", "readout number": 40.3}
{"molecule": "CCc1c(Cl)cccc1Nc1c(-c2ccncc2OC[C@@H]2CN(C)CCO2)[nH]c2c1C(=O)NCC2", "readout number": 48.9}
{"molecule": "Cc1c(Cl)cccc1Nc1c(-c2ccncc2OC[C@@H]2CN(C)CCO2)[nH]c2c1C(=O)NCC2", "readout number": 48.5}
{"molecule": "COc1c(F)cccc1Nc1c(-c2ccncc2OCC2COCCO2)[nH]c2c1C(=O)NCC2 (single isomer, unassigned)", "readout number": 79.3}

Give GI50 for each listed item.
1. COc1c(F)cccc1Nc1c(-c2ccncc2OCC2CN(C)CCO2)[nH]c2c1C(=O)NCC2 (single isomer, unassigned)
2. COc1c(Cl)cccc1Nc1c(-c2ccncc2OCC2COC(C)(C)CO2)[nH]c2c1C(=O)NCC2 (single isomer, unassigned)

1: 65.8; 2: 47.3

====

Target: Ba/F3-EGFR-insSVD cells (Homo sapiens, UniProt P00533, DUP768-770, cells depend on it)
Sequence (P00533 with tags, fused parts or gaps DUP768-770): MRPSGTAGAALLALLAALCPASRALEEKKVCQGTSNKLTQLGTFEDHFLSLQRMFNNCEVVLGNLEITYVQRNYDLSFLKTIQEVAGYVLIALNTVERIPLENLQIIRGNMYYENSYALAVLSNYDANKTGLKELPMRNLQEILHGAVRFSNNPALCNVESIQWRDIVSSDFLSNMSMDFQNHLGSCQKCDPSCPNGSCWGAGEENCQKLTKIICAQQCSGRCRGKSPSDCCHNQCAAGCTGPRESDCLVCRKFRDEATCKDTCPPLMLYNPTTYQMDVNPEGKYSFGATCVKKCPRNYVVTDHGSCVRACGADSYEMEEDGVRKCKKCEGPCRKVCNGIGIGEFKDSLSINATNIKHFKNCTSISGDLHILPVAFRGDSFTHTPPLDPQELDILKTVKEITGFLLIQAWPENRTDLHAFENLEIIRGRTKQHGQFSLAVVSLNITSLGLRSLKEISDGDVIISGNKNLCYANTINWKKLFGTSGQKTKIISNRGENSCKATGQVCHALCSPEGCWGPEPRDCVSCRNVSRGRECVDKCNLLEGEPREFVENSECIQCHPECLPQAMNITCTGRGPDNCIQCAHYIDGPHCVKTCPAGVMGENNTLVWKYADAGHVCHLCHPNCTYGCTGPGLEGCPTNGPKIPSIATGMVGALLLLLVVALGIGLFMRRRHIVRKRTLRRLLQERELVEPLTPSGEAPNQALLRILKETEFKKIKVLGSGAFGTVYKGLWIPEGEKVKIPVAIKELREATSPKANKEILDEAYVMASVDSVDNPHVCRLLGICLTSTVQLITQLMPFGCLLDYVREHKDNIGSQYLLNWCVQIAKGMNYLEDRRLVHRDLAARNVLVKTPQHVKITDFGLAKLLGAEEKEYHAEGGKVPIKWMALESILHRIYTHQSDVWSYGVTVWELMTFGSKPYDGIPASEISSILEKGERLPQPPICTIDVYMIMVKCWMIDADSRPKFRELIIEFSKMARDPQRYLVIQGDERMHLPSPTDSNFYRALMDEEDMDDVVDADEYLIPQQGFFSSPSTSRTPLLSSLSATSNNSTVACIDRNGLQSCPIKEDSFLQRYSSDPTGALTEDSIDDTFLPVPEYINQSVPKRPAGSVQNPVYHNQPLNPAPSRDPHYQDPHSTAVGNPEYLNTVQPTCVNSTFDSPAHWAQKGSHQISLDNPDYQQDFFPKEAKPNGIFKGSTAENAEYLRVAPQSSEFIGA
Assay: Ba/F3 cell survival assay (Cell Titer-Glo), EGFR-insSVD
Format: cell-based
Conditions: without IL-3, with 10 ng/mL EGF, 48 h; read-out: BA/F3 (insSVD) IC50
Returns: string. Value is criterion met if measured GI50 is below 20 nM, and criterion not met if it is greater than or equal to it.

Consider the following illustrative entries.
{"compound": "COc1c(Cl)cccc1Nc1c(-c2ccncc2O[C@@H](C)C2COCCO2)[nH]c2c1C(=O)NCC2 (single isomer, unassigned) [Example 58]", "group label": "criterion not met"}
{"compound": "COc1c(Cl)cccc1Nc1c(-c2ccncc2OC(C)C2CN(C)CCO2)[nH]c2c1C(=O)NCC2 (single isomer, unassigned) [Example 72]", "group label": "criterion not met"}
{"compound": "COc1c(Cl)cccc1Nc1c(-c2ccncc2O[C@H](C)C2COCCO2)[nH]c2c1C(=O)NCC2 (single isomer, unassigned) [Example 60]", "group label": "criterion not met"}
{"compound": "Cc1c(Cl)cccc1Nc1c(-c2ccncc2OCC2COCCO2)[nH]c2c1C(=O)NCC2 (centres unmarked)", "group label": "criterion met"}
{"compound": "Cc1c(Cl)cccc1Nc1c(-c2ccncc2OC[C@H]2COCCO2)[nH]c2c1C(=O)NCC2 (single isomer, unassigned) [Example 51]", "group label": "criterion not met"}

API: query returns whether the compound falls strictly under 20 nM in GI50. Query: COc1c(Cl)cc(F)cc1Nc1c(-c2ccncc2OC[C@@H]2CN(C)CCO2)[nH]c2c1C(=O)NCC2
criterion met

Please state whether GI50 is below 20 nM for COc1c(Cl)cccc1Nc1c(-c2ccncc2OCC2CN(C)CCO2)[nH]c2c1C(=O)NCC2 (single isomer, unassigned) [Example 17]
criterion met

Record COc1c(F)cccc1Nc1c(-c2ccncc2OCCC2COCCO2)[nH]c2c1C(=O)NCC2 (single isomer, unassigned) [Example 35] : is its GI50 strictly below 20 nM?
criterion not met

Just wondering, is GI50 of CCc1c(F)cccc1Nc1c(-c2ccncc2OCC2COC(C)(C)CO2)[nH]c2c1C(=O)NCC2 (single isomer, unassigned) [Example 69] below 20 nM?
criterion met

Attribution: patent US12679836B2
